Please go through the items and note down their pIC50.
// returns pIC50 (minus log10 of molar concentration), number only

# input // fetch pIC50 for CC(=O)N[C@@H](Cc1ccc(OP(=O)(O)O)cc1)C(=O)N[C@@H]1CCCCc2cc(OCC3CCCCC3)c(C(N)=O)cc21 ; system: Proto-oncogene tyrosine-protein kinase Src (Homo sapiens, UniProt P12931)
# Sequence (P12931 2-536 limits assumed): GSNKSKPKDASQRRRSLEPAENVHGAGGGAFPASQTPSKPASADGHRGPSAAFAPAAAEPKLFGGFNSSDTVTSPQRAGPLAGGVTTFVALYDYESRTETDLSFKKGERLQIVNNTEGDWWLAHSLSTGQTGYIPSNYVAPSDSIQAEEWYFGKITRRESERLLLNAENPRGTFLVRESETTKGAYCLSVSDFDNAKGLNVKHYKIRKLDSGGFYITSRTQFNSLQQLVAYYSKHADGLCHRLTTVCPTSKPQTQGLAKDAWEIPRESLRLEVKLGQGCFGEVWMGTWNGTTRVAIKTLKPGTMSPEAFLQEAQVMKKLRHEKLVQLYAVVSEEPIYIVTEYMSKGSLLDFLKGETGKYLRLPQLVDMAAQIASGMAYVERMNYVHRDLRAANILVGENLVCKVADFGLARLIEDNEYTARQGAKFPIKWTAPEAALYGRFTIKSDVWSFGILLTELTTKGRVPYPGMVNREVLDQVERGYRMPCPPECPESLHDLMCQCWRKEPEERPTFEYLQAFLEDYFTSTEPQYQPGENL
# output 5.09

# input // fetch pIC50 for CC[C@H](C)[C@H](NC(=O)[C@H](CCC(=O)O)NC(=O)[C@H](CCC(=O)O)NC(=O)[C@@H](N)Cc1ccc(OP(=O)(O)O)cc1)C(=O)O ; system: Proto-oncogene tyrosine-protein kinase Src (Homo sapiens, UniProt P12931)
# output 5.25

# input // fetch pIC50 for CC(=O)N[C@@H](Cc1ccc(OP(=O)(O)O)cc1)C(=O)N[C@H]1CCCOc2cc(OCC3CCCCC3)c(C(N)=O)cc21 ; system: Proto-oncogene tyrosine-protein kinase Src (Homo sapiens, UniProt P12931)
# output 6.70

# input // fetch pIC50 for CC(=O)N[C@@H](Cc1ccc(OP(=O)(O)O)cc1)C(=O)N[C@H]1CCCCc2cc(OCC3CCCCC3)c(C(N)=O)cc21 ; system: Proto-oncogene tyrosine-protein kinase Src (Homo sapiens, UniProt P12931)
# output 7.00
